Listing of entries alongside the reported koff.
# tested-target: T1, human DLL3 (ACRO, DLL3-H52H4) (human, UniProt Q9NYJ7 27-492)
# T1 construct: Bought
# T1 sequence: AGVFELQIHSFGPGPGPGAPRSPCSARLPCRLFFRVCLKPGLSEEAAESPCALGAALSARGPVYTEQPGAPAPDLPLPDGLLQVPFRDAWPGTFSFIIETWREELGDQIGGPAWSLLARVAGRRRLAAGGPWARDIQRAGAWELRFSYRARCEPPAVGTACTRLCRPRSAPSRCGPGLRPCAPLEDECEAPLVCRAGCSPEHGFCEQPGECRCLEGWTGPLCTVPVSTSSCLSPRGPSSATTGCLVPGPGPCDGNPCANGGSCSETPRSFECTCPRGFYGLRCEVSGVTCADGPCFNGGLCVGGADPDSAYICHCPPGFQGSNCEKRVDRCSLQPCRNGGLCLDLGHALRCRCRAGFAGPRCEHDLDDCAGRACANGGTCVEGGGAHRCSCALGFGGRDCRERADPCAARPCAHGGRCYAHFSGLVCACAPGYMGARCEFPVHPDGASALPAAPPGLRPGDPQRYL
# test: SPR Biacore 8K, Ab captured on Protein A
Response body: numeric value in s⁻¹, unit text excluded.

Worked cases, koff given:
>>> measured_number("hu6L2H1 (antibody, human IgG1, kappa, V domains shown) VH: EVQLVQSGAEVKKPGASVKVSCKASGYTFTDYYMNWVRQAPGQRLEWMGIINPYSGVTIYNHKFKGRVTITVDKSASTAYMELSSLRSEDTAVYYCARQDSLLDYAMDYWGQGTTVTVSS VL: DIQMTQSPSSLSASVGDRVTITCHASQGISGNMGWLQQKPGKAPKGLIYHGANLEDGVPSRFSGSGSGADYTLTISSLQPEDFATYYCVQYAQFPYTFGGGTKVEIKR")
0.00155
>>> measured_number("hu6L2H2 (antibody, human IgG1, kappa, V domains shown) VH: EVQLVQSGAEVKKPGASVKVSCKASGYTFTDYYMNWVRQAPGQRLEWMGIINPYSGVTIYNHKFKGRVTLTVDKSANTAYMELSSLRSEDTAVYYCARQDSLLDYAMDYWGQGTTVTVSS VL: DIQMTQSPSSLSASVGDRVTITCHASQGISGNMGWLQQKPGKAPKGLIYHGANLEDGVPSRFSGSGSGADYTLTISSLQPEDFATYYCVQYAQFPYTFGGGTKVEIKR")
0.00116

Request: Specify koff for hu110L2H1 (antibody, human IgG1, kappa, V domains shown) VH: EVQLVQSGAEVKKPGASVKVSCKASGYTFTDYYMNWVRQAPGQRLEWMGIINPYNGGTSYTQKFKGRVTITVDKSASTAYMELSSLRSEDTAVYYCARHFYDSSYLTYSTMDYWGQGTTVTVSS VL: NIVMTQSPKSLAVSLGERATINCKASENVGIFVSWYQQKPGQSPKLLIYGASNRYTGVPDRFSGSGSATDFTLTISSLQAEDVADYYCGQSHSYPLTFGQGTKLEIKR and stop.
Result: 5.84e-05
